Target Entity: Sodium channel protein type 1 subunit alpha (Rattus norvegicus)
Assay: NVS_IC_rNaCh_site2: NovaScreen (NVS) Ion Channel Assay for rat Sodium Channel, Site 2 (NaCh) (AID 2283322);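 further: hit means loss of radioligand binding signal relative to DMSO so AC50 marks displacement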
Records with an inconclusive call do not appear. Calls of active or inactive are those of the source. How the source made its calls: active means hit-call score of the fitted dose curve at least 0.9, where 1 is the maximum; inconclusive means response in the unintended direction; inactive means score below 0.9.
Labels: class 1 = active, class 0 = inactive

[[record]]
compound_smiles = "Nc1cccc2c(N)cccc12"
target_entity = "Sodium channel protein type 1 subunit alpha (Rattus norvegicus)"
category = "class 1"

[[record]]
compound_smiles = "CCCOC(=O)c1ccc(O)cc1"
target_entity = "Sodium channel protein type 1 subunit alpha (Rattus norvegicus)"
category = "class 1"

[[record]]
compound_smiles = "CC(=O)NC1(c2cccc(F)c2)CCN(CC[C@@]2(c3ccc(Cl)c(Cl)c3)CN(c3ccccc3)C(=O)CO2)CC1"
target_entity = "Sodium channel protein type 1 subunit alpha (Rattus norvegicus)"
category = "class 1"

[[record]]
compound_smiles = "Cc1oc(-c2ccccc2)nc1CCOc1ccc(C[C@H](Nc2ccccc2C(=O)c2ccccc2)C(=O)O)cc1"
target_entity = "Sodium channel protein type 1 subunit alpha (Rattus norvegicus)"
category = "class 1"

[[record]]
compound_smiles = "O=C(O)Cc1cc(I)c(Oc2cc(I)c(O)c(I)c2)c(I)c1"
target_entity = "Sodium channel protein type 1 subunit alpha (Rattus norvegicus)"
category = "class 0"

[[record]]
compound_smiles = "CCCCCCCCCCCCCC[N+](C)(C)C"
target_entity = "Sodium channel protein type 1 subunit alpha (Rattus norvegicus)"
category = "class 1"


###

Read-out: Tissue plasminogen activator (tPA), PLAT (gene 5327)
Assay: BSK_BE3C_tPA: BioMAP Diversity Plus: BE3C Assay for Tissue plasminogen activator (tPA) Biomarker Activity (AID 2283041)
Conditions Used: primary human bronchial epithelial cells; actives raise or lower the signal
Active and inactive are the calls of the source. How the source made its calls: active means hit-call score of the fitted dose curve at least 0.9, where 1 is the maximum; inactive means score below 0.9.
Classes used: 1 (yes) for active, 0 (no) for inactive

[[record]]
compound_smiles = "Cc1oc(-c2ccccc2)nc1CCOc1ccc(C[C@H](Nc2ccccc2C(=O)c2ccccc2)C(=O)O)cc1"
category = "0 (no)"

[[record]]
compound_smiles = "c1ccc2c(c1)Cc1ccccc1-2"
category = "0 (no)"

[[record]]
compound_smiles = "CC(C)(C)c1ccc(O)c(C(C)(C)C)c1"
category = "1 (yes)"

[[record]]
compound_smiles = "c1ccc2c(c1)ccc1ccccc12"
category = "0 (no)"

[[record]]
compound_smiles = "C#C[C@]1(O)CC[C@H]2[C@@H]3CCC4=CC(=O)CC[C@@H]4[C@H]3CC[C@@]21C"
category = "0 (no)"

[[record]]
compound_smiles = "CCCCCCCCCCCCc1ccccc1S(=O)(=O)O"
category = "1 (yes)"


###

Assay: CCTE_Shafer_MEA_dev_network_spike_number: CCTE's Neural Network Formation Assay for Number of Network Spikes, Shafer Lab (AID 2284048);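 further: synchronized bursts across electrodes counted on days 5 7 9 12 and integrated as AUC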
Calls of active or inactive are those of the source. How the source made its calls: active means hit-call score of the fitted dose curve at least 0.9, where 1 is the maximum; inactive means score below 0.9.
Outcome Measure: outcome

[[record]]
compound = "CN1CCC[C@H]1c1cccnc1"
result_value = "inactive"

[[record]]
compound = "OCCC(F)(F)C(F)(F)C(F)(F)C(F)(F)C(F)(F)C(F)(F)C(F)(F)C(F)(F)F"
result_value = "inactive"

[[record]]
compound = "c1ccc2c(c1)ccc1ccccc12"
result_value = "inactive"

[[record]]
compound = "OCCC(F)(F)C(F)(F)C(F)(F)C(F)(F)C(F)(F)C(F)(F)F"
result_value = "inactive"

[[record]]
compound = "CC(O)CO (stereo not given)"
result_value = "inactive"


Cited source for all entries: PubChem BioAssay (EPA / NIEHS)
